This collection of values is drawn from ChEMBL document CHEMBL1201862.

# Tested on: SF-295
# TEST METHOD NOTES: NCI tumour cell line growth inhibition, 48 h
Calls of active or inactive are those of the source. No stated cut-off is given here; in the data, active = GI50 up to about 1.1 µM and inactive = higher.
PROPERTY LABEL: GI50

Some compounds with recorded GI50:
compound="Nc1ncnc2c1ncn2CC(O)C(=O)O (configuration not stated)" result="> 100 µM (inactive)"
compound=C1=N/CCNCCNCC/N=C/c2ccccc2OCc2cccc(n2)COc2ccccc2/1 result="26.4 µM (inactive)"
compound=COC(=O)/C(=C(/C)c1ccco1)P(=O)(OC)OC result="> 100 µM (inactive)"
compound=Cc1ccc(N2C(=O)/C(=C/c3ccc(N(CCC#N)CCC#N)cc3)N=C2COc2ccc(Cl)cc2Cl)cc1 result="> 100 µM (inactive)"

Inquiry: Tell me its GI50 given Cc1cc2c(c(O)c1-c1c(C)cc(O)c3c1C(=O)C=CC3=O)C(=O)C=CC2=O as the entry.
Reply text: 16.7 µM (inactive)

Inquiry: Retrieve GI50 measured for NC1=C(NC(=O)Cc2ccc(F)cc2)C(=O)c2ccccc2C1=O and print it.
Reply text: 33.3 µM (inactive)

Inquiry: Identify measured GI50 associated with O=C(O)c1ccc(OCc2nc3cc(C(F)(F)F)ccc3nc2-c2ccccc2)cc1
Reply text: 39.1 µM (inactive)
